molecular target: Ec Hfq F11W (Escherichia coli, UniProt P0A6X3 1-102, F11W); test: fluorescence polarization
reportedMetric: Kd
Express the reported value numerically, then name its unit.

Reported Kd of UUUUUU (ssRNA) [U6 (fluorescein)] : 503 nM

Reported Kd of AAAAAAAAAAAAAAA (ssRNA) [A15 (fluorescein)] : 7.1 nM

FYI, the data here is from paper PMC3936774.
